Values compiled from patent US20250195484A1.

Tested on: SU-DHL-1
Test: Cell viability assay (CellTiter-Glo 2.0), SU-DHL-1
Assay type: cell-based
Settings: Homo sapiens, 96 h; SU-DHL-1 cells, 4 days
Description: SU-DHL-1 and SUP-M2 cell viability was determined by CellTiter-Glo 2.0 Cell Viability Assay (Promega). […] At the end of treatment, CellTiter-Glo 2.0 was added to the wells and luminescence was acquired on TECAN PSARK plate reader. […] IC50 values were calculated using a nonlinear regression analysis of the mean±SD from triplicate.
pIC50: −log10 of the molar value.
endpoint-name: pIC50

Sure, the documented pIC50 for CC(C)S(=O)(=O)c1ccc(CNC(=O)[C@H](CCC(N)=O)NC(=O)[C@@H]2CC[C@@H]3CCN(C(=O)CCCCN4CCC5(CC4)COc4c5ccc5c4CN([C@H]4CCC(=O)NC4=O)C5=O)C[C@H](NC(=O)c4cc5cc(C(=O)P(=O)(O)O)ccc5[nH]4)C(=O)N32)cc1 is 5.00 to 6.00

pIC50 recorded for this compound, CCS(=O)(=O)c1ccc(CNC(=O)[C@H](CCC(N)=O)NC(=O)[C@@H]2CC[C@@H]3CCN(C(=O)CCCCN4CCC5(CC4)COc4c5ccc5c4CN([C@H]4CCC(=O)NC4=O)C5=O)C[C@H](NC(=O)c4cc5cc(C(=O)P(=O)(O)O)ccc5[nH]4)C(=O)N32)cc1 , is 5.00 to 6.00

So for CS(=O)(=O)c1cccc(OC[C@H](CCC(N)=O)NC(=O)[C@@H]2CC[C@@H]3CCN(C(=O)CCCCN4CCC5(CC4)COc4c5ccc5c4CN([C@H]4CCC(=O)NC4=O)C5=O)C[C@H](NC(=O)c4cc5cc(C(=O)P(=O)(O)O)ccc5[nH]4)C(=O)N32)c1 , the logged pIC50 turned out to be 5.00 to 6.00

Measured pIC50, NC(=O)CC[C@H](NC(=O)[C@@H]1CC[C@@H]2CCN(C(=O)CCCCN3CCC4(CC3)COc3c4ccc4c3CN([C@H]3CCC(=O)NC3=O)C4=O)C[C@H](NC(=O)c3cc4cc(C(F)(F)P(=O)(O)O)ccc4s3)C(=O)N21)C(=O)NCc1cccc(Cl)c1 : 5.00 to 6.00

Data point: CS(=O)(=O)c1cccc(OC[C@H](CCC(N)=O)NC(=O)[C@@H]2CC[C@@H]3CCN(C(=O)CCCCN4CCC5(CC4)COc4c5ccc5c4CN([C@H]4CCC(=O)NC4=O)C5=O)C[C@H](NC(=O)c4cc5cc(C(F)(F)P(=O)(O)O)ccc5s4)C(=O)N32)c1 ; pIC50 = 5.00 to 6.00

----------
Molecular target: STAT3 (Homo sapiens, UniProt P40763)
Construct: host or cells: HeLa (STAT3-HiBiT CRISPR knock-in clone)
Sequence (P40763 whole entry): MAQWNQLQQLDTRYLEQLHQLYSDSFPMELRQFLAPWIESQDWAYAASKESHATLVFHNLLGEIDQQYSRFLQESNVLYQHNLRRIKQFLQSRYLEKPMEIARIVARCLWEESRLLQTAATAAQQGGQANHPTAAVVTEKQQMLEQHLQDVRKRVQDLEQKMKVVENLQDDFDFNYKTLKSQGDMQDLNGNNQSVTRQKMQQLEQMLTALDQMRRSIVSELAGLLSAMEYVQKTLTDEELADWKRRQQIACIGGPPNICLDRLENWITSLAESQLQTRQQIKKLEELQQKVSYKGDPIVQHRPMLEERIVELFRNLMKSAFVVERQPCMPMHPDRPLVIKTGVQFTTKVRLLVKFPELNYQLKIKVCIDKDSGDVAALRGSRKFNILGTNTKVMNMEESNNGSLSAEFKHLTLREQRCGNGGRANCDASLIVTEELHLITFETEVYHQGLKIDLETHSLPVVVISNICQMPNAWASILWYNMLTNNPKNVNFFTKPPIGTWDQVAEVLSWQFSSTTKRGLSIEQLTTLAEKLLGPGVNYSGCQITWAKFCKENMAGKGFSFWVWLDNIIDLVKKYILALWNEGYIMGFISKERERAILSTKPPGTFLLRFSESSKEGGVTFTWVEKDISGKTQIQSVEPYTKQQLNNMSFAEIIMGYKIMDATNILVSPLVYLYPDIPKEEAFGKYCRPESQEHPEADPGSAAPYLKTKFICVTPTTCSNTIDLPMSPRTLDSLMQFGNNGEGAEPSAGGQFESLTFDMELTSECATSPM
Test: STAT3 degradation HiBiT assay (STAT3-HIBIT KI HeLa)
Type: cell-based
Conditions: STAT3-HIBIT KI HeLa cells, 24 hours
# Dmax per entry

Examples from the recorded data:
| molecule | value |
| --- | --- |
| CS(=O)(=O)c1cccc(OC[C@H](CCC(N)=O)NC(=O)[C@@H]2CC[C@@H]3CCN(C(=O)CCCCN4CCC5(CC4)COc4c5ccc5c4CN([C@H]4CCC(=O)NC4=O)C5=O)C[C@H](NC(=O)c4cc5cc(C(F)(F)P(=O)(O)O)ccc5s4)C(=O)N32)c1 [STD 71] | ≥ 80% |
| CC(C)S(=O)(=O)c1ccc(CNC(=O)[C@H](CCC(N)=O)NC(=O)[C@@H]2CC[C@@H]3CCN(C(=O)CCCCN4CCC5(CC4)COc4c5ccc5c4CN([C@H]4CCC(=O)NC4=O)C5=O)C[C@H](NC(=O)c4cc5cc(C(=O)P(=O)(O)O)ccc5[nH]4)C(=O)N32)cc1 [STD 86] | ≥ 80% |
| CS(=O)(=O)c1cccc(OC[C@H](CCC(N)=O)NC(=O)[C@@H]2CC[C@@H]3CCN(C(=O)CCN4CCC5(CC4)COc4c5ccc5c4CN([C@H]4CCC(=O)NC4=O)C5=O)C[C@H](NC(=O)c4cc5cc(C(F)(F)P(=O)(O)O)ccc5s4)C(=O)N32)c1 [STD 69] | 60 to 80% |
| CCS(=O)(=O)c1ccc(CNC(=O)[C@H](CCC(N)=O)NC(=O)[C@@H]2CC[C@@H]3CCN(C(=O)CCCCN4CCC5(CC4)COc4c5ccc5c4CN([C@H]4CCC(=O)NC4=O)C5=O)C[C@H](NC(=O)c4cc5cc(C(=O)P(=O)(O)O)ccc5[nH]4)C(=O)N32)cc1 [STD 85] | ≥ 80% |
| CS(=O)(=O)c1cccc(OC[C@H](CCC(N)=O)NC(=O)[C@@H]2CC[C@@H]3CCN(C(=O)CCCCN4CCC5(CC4)COc4c5ccc5c4CN([C@H]4CCC(=O)NC4=O)C5=O)C[C@H](NC(=O)c4cc5cc(C(=O)P(=O)(O)O)ccc5[nH]4)C(=O)N32)c1 [STD 84] | ≥ 80% |

Measured on STAT3 (Homo sapiens, UniProt P40763), NC(=O)CC[C@H](NC(=O)[C@@H]1CC[C@@H]2CCN(C(=O)CCCCC(=O)N3CCC4(CC3)COc3c4ccc4c3CN([C@H]3CCC(=O)NC3=O)C4=O)C[C@H](NC(=O)c3cc4cc(C(F)(F)P(=O)(O)O)ccc4s3)C(=O)N21)C(=O)NC(c1ccccc1)c1ccccc1 [STD 22] has a documented Dmax of < 40%

Considering NC(=O)CC[C@H](NC(=O)[C@@H]1CC[C@@H]2CCN(C(=O)CCCCN3CCC4(CC3)COc3c4ccc4c3CN([C@H]3CCC(=O)NC3=O)C4=O)C[C@H](NC(=O)c3cc4cc(C(F)(F)P(=O)(O)O)ccc4s3)C(=O)N21)C(=O)NCc1cccc(Cl)c1 [STD 70] , its Dmax with STAT3 (Homo sapiens, UniProt P40763) was recorded as ≥ 80%

// molecule CC(C)S(=O)(=O)c1ccc(CNC(=O)[C@H](CCC(N)=O)NC(=O)[C@@H]2CC[C@@H]3CCN(C(=O)CCCCN4CCC5(CC4)COc4c5ccc5c4CN([C@H]4CCC(=O)NC4=O)C5=O)C[C@H](NC(=O)c4cc5cc(C(F)(F)P(=O)(O)O)ccc5s4)C(=O)N32)cc1 [STD 80] , assay STAT3 (Homo sapiens, UniProt P40763), Dmax value: ≥ 80%
